Test system: 282377-053-R-J1-PDC complex spheroid viability;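 note: spheroids exposed to compounds for seven days; 100% = DMSO vehicle control viability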
Assay: Anticancer human tumor 282377-053-R-J1-PDC patient-derived colon adenocarcinoma cell line growth inhibition [POLQ]
Conditions: second compound 1 µM; first compound 3.16 µM; active compounds read low
Method: Multicellular complex tumor spheroid response to Polymerase (POL) inhibitors (novobiocin, ART-558, RP6685) in combination with a variety of drugs and investigational agents in selected tumor cell lines The POL inhibitors (novobiocin, ART-558, and RP6685) were evaluated both individually and in combination with standard of care and investigational anticancer small molecules within a complex spheroid model of solid tumors. . […]
QUANTITY MEASURED: viability, T/C (%)
API: value field is a number in %; no unit string.

Some molecules with recorded viability, T/C:
viability, T/C for CC(C)n1c(=O)n(C)c2cnc3cc(F)c(-c4ccc(OCCCN5CCCCC5)nc4)cc3c21 + Cc1cccc(N(C)C(=O)C2C(O)CCN2c2nc(C)cc(C(F)(F)F)c2C#N)c1 is 106

viability, T/C for COc1ccc([C@@H](O)c2cc(-c3ncnc4cc(N5CCOCC5)ccc34)c(F)cc2Cl)nn1 + COC1C(OC(N)=O)C(O)C(Oc2ccc3c(O)c(NC(=O)c4ccc(O)c(CC=C(C)C)c4)c(=O)oc3c2C)OC1(C)C is 95

viability, T/C for CC(C)n1c(=O)n(C)c2cnc3cc(F)c(-c4ccc(OCCCN5CCCCC5)nc4)cc3c21 + Nc1ccc(C#CCN(C(=O)Cc2ncc(C(F)(F)F)cc2C(F)(F)F)c2ccc(F)cc2)nn1 is 118

viability, T/C for CC1COCCN1c1cc(C2(S(C)(=N)=O)CC2)nc(-c2ccnc3[nH]ccc23)n1 (stereo unspecified) + Nc1ccc(C#CCN(C(=O)Cc2ncc(C(F)(F)F)cc2C(F)(F)F)c2ccc(F)cc2)nn1 is 75.1

viability, T/C for CC1COCCN1c1cc(-c2ccnn2C)c2ccnc(-c3ccn[nH]3)c2n1 (stereo unspecified) + Cc1cccc(N(C)C(=O)C2C(O)CCN2c2nc(C)cc(C(F)(F)F)c2C#N)c1 is 27.2

viability, T/C for Nc1ccn(C2OC(CO)C(O)C2(F)F)c(=O)n1 (stereo unspecified) + COC1C(OC(N)=O)C(O)C(Oc2ccc3c(O)c(NC(=O)c4ccc(O)c(CC=C(C)C)c4)c(=O)oc3c2C)OC1(C)C is 21.8

viability, T/C for COc1cc(C2c3cc4c(cc3C(OC3OC5COC(C)OC5C(O)C3O)C3COC(=O)C23)OCO4)cc(OC)c1O (stereo unspecified) + Cc1cccc(N(C)C(=O)C2C(O)CCN2c2nc(C)cc(C(F)(F)F)c2C#N)c1 is 78.7

viability, T/C for COc1cc2cc(C(=O)CCC(=O)O)sc2cc1OC + Cc1cccc(N(C)C(=O)C2C(O)CCN2c2nc(C)cc(C(F)(F)F)c2C#N)c1 is 103

viability, T/C for CCc1cc2c(N3CCc4c(cc(Cn5ccnc5)cc4-c4cn(C)nc4C(F)(F)F)C3=O)cc(C)nc2c(OC)n1 + COC1C(OC(N)=O)C(O)C(Oc2ccc3c(O)c(NC(=O)c4ccc(O)c(CC=C(C)C)c4)c(=O)oc3c2C)OC1(C)C is 108

viability, T/C for O=c1[nH]cc(F)c(=O)[nH]1 + Nc1ccc(C#CCN(C(=O)Cc2ncc(C(F)(F)F)cc2C(F)(F)F)c2ccc(F)cc2)nn1 is 112

Here's the next entry for you.
viability, T/C for C#Cc1c(F)ccc2cc(O)cc(-c3ncc4c(N5CC6CCC(C5)N6)nc(OCC56CCCN5CC(F)C6)nc4c3F)c12 (stereo unspecified) + Nc1ccc(C#CCN(C(=O)Cc2ncc(C(F)(F)F)cc2C(F)(F)F)c2ccc(F)cc2)nn1 is 94.7
